// data source = patent US11214578B2

Biological target: Rat MAGL (rMAGL) (Rattus norvegicus, UniProt Q8R431)
Construct: made in house; host or cells: E. coli
Sequence (Q8R431 whole entry): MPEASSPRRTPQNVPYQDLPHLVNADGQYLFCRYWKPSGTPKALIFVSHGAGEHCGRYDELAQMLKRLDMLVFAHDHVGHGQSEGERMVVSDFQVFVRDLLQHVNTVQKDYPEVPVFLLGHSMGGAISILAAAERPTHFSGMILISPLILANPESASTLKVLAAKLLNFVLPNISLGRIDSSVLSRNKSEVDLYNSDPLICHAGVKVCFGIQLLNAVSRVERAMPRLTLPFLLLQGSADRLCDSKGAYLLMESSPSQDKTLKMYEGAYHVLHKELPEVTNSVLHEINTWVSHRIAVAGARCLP
Experiment: Fluorescent assay protocol for rMAGL
Format: biochemical
Details: recombinant rat MAGL, procedure as for hMAGL; read-out: IC50 rMAGL
pIC50: −log10 of the molar value.
Readings of pIC50 for the listed molecules

Molecule | System Under Test | pIC50
NC(=O)c1cccc(-c2cccc(NC(=O)N3CCN(Cc4ccc5ccccc5n4)CC3)c2)c1 | Rat MAGL (rMAGL) (Rattus norvegicus, UniProt Q8R431) | < 6.00
O=C(N1CCN(C(c2ccc(F)cc2)c2ccc(F)cc2)CC1)n1cnc(Br)c1 | Rat MAGL (rMAGL) (Rattus norvegicus, UniProt Q8R431) | < 6.00
N#Cc1ccc(F)c(OC(=O)N2CCC(OC(c3ccccc3)c3ccccc3)CC2)c1 | Rat MAGL (rMAGL) (Rattus norvegicus, UniProt Q8R431) | 6.00 to 6.96
NC(=O)c1cccc(-c2cccc(NC(=O)N3CCC(c4ccccc4)CC3)c2)c1 | Rat MAGL (rMAGL) (Rattus norvegicus, UniProt Q8R431) | < 6.00
COC(=O)c1cccc(OC(=O)N2CCC(OC(c3ccccc3)c3ccccc3)CC2)c1 | Rat MAGL (rMAGL) (Rattus norvegicus, UniProt Q8R431) | 6.00 to 6.96
N#Cc1cccnc1OC(=O)N1CCN(C2c3ccccc3-c3ccccc32)CC1 | Rat MAGL (rMAGL) (Rattus norvegicus, UniProt Q8R431) | 7.00 to 8.00
C[C@H]1CN(C(=O)Nc2cccc(-c3cccc(C(N)=O)c3)c2)CCN1Cc1ccc2ccccc2n1 | Rat MAGL (rMAGL) (Rattus norvegicus, UniProt Q8R431) | < 6.00
Cc1ccc(S(=O)(=O)N2CCN(C(=O)Oc3ccc(Br)cc3)CC2)cc1 | Rat MAGL (rMAGL) (Rattus norvegicus, UniProt Q8R431) | 7.00 to 8.00
C[C@H]1CN(Cc2cccc(Oc3ccccc3)c2)CCN1C(=O)Nc1cccc(-c2cccc(C(N)=O)c2)c1 | Rat MAGL (rMAGL) (Rattus norvegicus, UniProt Q8R431) | < 6.00
O=C(Nc1ccccc1)N1CC(OCc2ccc(Cl)cc2)C1 | Rat MAGL (rMAGL) (Rattus norvegicus, UniProt Q8R431) | < 6.00

Observed pIC50, Rat MAGL (rMAGL) (Rattus norvegicus, UniProt Q8R431), O=C(Oc1cccc(N2CCS(=O)(=O)CC2)c1)N1CCN(c2ccccc2)CC1 : 7.00 to 8.00

Observed pIC50, Rat MAGL (rMAGL) (Rattus norvegicus, UniProt Q8R431), O=C1CC2(CCC(C(=O)n3cnc(Br)c3)CC2)Oc2ccccc21 (centres unmarked) : < 6.00

Observed pIC50, Rat MAGL (rMAGL) (Rattus norvegicus, UniProt Q8R431), N#Cc1ccc(F)c(OC(=O)N2CCC(S(=O)(=O)c3ccc(Br)cc3)CC2)c1 : 7.00 to 8.00

Observed pIC50, Rat MAGL (rMAGL) (Rattus norvegicus, UniProt Q8R431), O=C(N1C[C@@H]2C[C@H]1CN2Cc1cccc(-c2ccccc2)c1)n1cnc(-c2ccccc2)c1 : < 6.00

Observed pIC50, Rat MAGL (rMAGL) (Rattus norvegicus, UniProt Q8R431), O=C(Oc1cccc(N2CCS(=O)(=O)CC2)c1)N1CCC(c2ccccc2)CC1 : 6.00 to 6.96

Observed pIC50, Rat MAGL (rMAGL) (Rattus norvegicus, UniProt Q8R431), COc1ccc(C#N)cc1OC(=O)N1CCC(S(=O)(=O)c2ccc(Br)cc2)CC1 : 7.00 to 8.00

Observed pIC50, Rat MAGL (rMAGL) (Rattus norvegicus, UniProt Q8R431), O=C(N1CC(N2CCC(c3ccccc3)CC2)C1)n1cccn1 : 7.00 to 8.00
